assay_endpoint: melting point

O/N=C/Nc1ccc(OCC2CCCO2)nc1 (stereo not drawn) | 114 to 115 °C
CN1CCC(CCOc2ccc(N/C=N/O)cn2)CC1 | 131 to 133 °C

## Task Retrieve melting point measured for COc1ccccc1CCOc1ccc(N/C=N/O)cn1 and print it.
## Result 159.5 to 161 °C

## Task Retrieve melting point measured for CC(C)(C)Sc1ccc(N/C=N/O)cn1 and print it.
## Result 174.5 to 175 °C

## Task Retrieve melting point measured for C#CCOc1ccc(N/C=N/O)cn1 and print it.
## Result 143.5 to 144.5 °C

## Task Retrieve melting point measured for C=CCCOc1ccc(N/C=N/O)cn1 and print it.
## Result 119 to 120 °C

## Task Retrieve melting point measured for CC#CCOc1ccc(N/C=N/O)cn1 and print it.
## Result 155.5 to 157 °C

## Task Retrieve melting point measured for CC(C)Oc1ccc(N/C=N/O)cn1 and print it.
## Result 116.5 to 117 °C

## Task Retrieve melting point measured for O/N=C/Nc1ccc(OCCOc2ccccc2)nc1 and print it.
## Result 153 to 154 °C

## Task Retrieve melting point measured for O/N=C/Nc1ccc(OCc2cc(F)ccc2F)nc1 and print it.
## Result 158.5 to 159.5 °C

## Task Retrieve melting point measured for CC(C)Sc1ccc(N/C=N/O)cn1 and print it.
## Result 141 to 142 °C

## Task Retrieve melting point measured for COc1cccc(COc2ccc(N/C=N/O)cn2)c1 and print it.
## Result 126 to 127 °C
